# system under test: oestrone sulphatase (E1-STS) (Homo sapiens)
# Sequence (P08842 22-583): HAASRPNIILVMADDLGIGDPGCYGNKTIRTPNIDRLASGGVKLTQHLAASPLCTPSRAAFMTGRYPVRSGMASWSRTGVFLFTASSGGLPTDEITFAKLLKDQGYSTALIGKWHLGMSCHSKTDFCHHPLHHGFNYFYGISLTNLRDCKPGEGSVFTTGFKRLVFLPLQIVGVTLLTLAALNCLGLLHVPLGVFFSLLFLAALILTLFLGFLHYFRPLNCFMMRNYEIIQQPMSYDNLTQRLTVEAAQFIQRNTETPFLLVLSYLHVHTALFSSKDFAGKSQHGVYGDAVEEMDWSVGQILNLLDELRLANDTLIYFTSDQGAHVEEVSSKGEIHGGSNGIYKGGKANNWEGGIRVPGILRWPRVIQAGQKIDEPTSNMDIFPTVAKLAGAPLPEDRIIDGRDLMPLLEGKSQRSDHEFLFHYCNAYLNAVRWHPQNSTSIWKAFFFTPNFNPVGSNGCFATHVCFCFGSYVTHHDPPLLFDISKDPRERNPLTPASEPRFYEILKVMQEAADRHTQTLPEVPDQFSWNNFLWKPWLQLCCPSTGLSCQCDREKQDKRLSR
observation type: pIC50
pIC50 (log units): -log10 of the concentration in mol/L.

I'd like to know its pIC50. The compound in question is C[C@]12CC[C@@H]3c4ccc(OS(N)(=O)=O)cc4CC[C@H]3[C@@H]1CCC2=O [EMATE, oestrone-3-sulphamate]
7.60

---

# system under test: oestrone sulphatase (E1-STS) (Homo sapiens, UniProt P08842)
# particulars: 1 μM (Table 1)
observation type: % Inhibition ± S.D. of E1-STS activity in placental microsomes (%)
Numbers only; they are read as %.

# query: % Inhibition ± S.D. of E1-STS activity in placental microsomes | item CCCc1cc(=O)oc2cc(OS(N)(=O)=O)ccc12 [compound 6, 4-(n-Propyl)coumarin-7-O-sulphamate] | system: oestrone sulphatase (E1-STS) (Homo sapiens, UniProt P08842)
94

Now the same for CCc1cc(=O)oc2cc(OS(N)(=O)=O)ccc12 [compound 4, 4-Ethylcoumarin-7-O-sulphamate]
88

Now the same for CCCc1c(C)c2ccc(OS(N)(=O)=O)cc2oc1=O [compound 11]
97

Now the same for CCc1c(C)c2ccc(OS(N)(=O)=O)cc2oc1=O [compound 8, 3-Ethyl-4-methylcoumarin-7-O-sulphamate]
96

---

# system under test: oestrone sulphatase (E1-STS) (Homo sapiens, UniProt P08842)
# particulars: 10 μM (Table 1)
observation type: % Inhibition ± S.D. of E1-STS activity in placental microsomes

I'd like to know its % Inhibition ± S.D. of E1-STS activity in placental microsomes. The compound in question is CCc1cc(=O)oc2cc(OS(N)(=O)=O)ccc12 [compound 4, 4-Ethylcoumarin-7-O-sulphamate]
>99%

Now the same for CCc1c(C)c2ccc(OS(N)(=O)=O)cc2oc1=O [compound 8, 3-Ethyl-4-methylcoumarin-7-O-sulphamate]
>99%

Now the same for CCCc1cc(=O)oc2cc(OS(N)(=O)=O)ccc12 [compound 6, 4-(n-Propyl)coumarin-7-O-sulphamate]
96 ± 1%

Now the same for `CCCc1c(C)c2ccc(OS(N)(=O)=O)cc2oc1=O`
>99%

---

# system under test: oestrone sulphatase (E1-STS) (Homo sapiens, UniProt P08842)
# particulars: 0.1 μM (Table 1)
Give measured % Inhibition ± S.D. of E1-STS activity in placental microsomes for each item. Keep answers brief.
Numbers only; they are read as %.

I'd like to know its % Inhibition ± S.D. of E1-STS activity in placental microsomes. The compound in question is CCc1cc(=O)oc2cc(OS(N)(=O)=O)ccc12 [compound 4, 4-Ethylcoumarin-7-O-sulphamate]
35

Now the same for CCCc1cc(=O)oc2cc(OS(N)(=O)=O)ccc12 [compound 6, 4-(n-Propyl)coumarin-7-O-sulphamate]
42

Now the same for `CCCc1c(C)c2ccc(OS(N)(=O)=O)cc2oc1=O`
83

Now the same for CCc1c(C)c2ccc(OS(N)(=O)=O)cc2oc1=O [compound 8, 3-Ethyl-4-methylcoumarin-7-O-sulphamate]
57
